Data provenance: PubChem BioAssay (NCI)

# Test system: MALME-3M melanoma
# Experiment: NCI tumour cell line growth inhibition, 48 h
We begin with a simple list: items and their reported log10(TGI).
Use the decimal logarithm of TGI (µM).

Consider the reported log10(TGI) for these molecules:
INSERT INTO results (molecule, result_type, recorded_value) VALUES
  ('O=C(Cc1nc2ccccc2s1)Nc1cccc(C(F)(F)F)c1', 'log10(TGI)', 1.49),
  ('O=C1CCCC/C1=C\c1ccc(Br)cc1', 'log10(TGI)', 1.33),
  ('O=C(Nc1ccc2ncnc(Nc3ccc(Oc4cccc(F)c4)c(Cl)c3)c2c1)c1ccc(CNCCO)cc1', 'log10(TGI)', 0.47),
  ('CCOC(=O)C1OC(C2(C)OC3(OC4(C=CC3O)OC(C(C)C(=O)C(C)C(O)C(C)CC(C)c3c(Cl)cc(C)c(O)c3C(=O)O)C(C)CC4C)C(C)C2OC)CC1O (stereo unspecified)', 'log10(TGI)', 0.26);

The record that follows has no log10(TGI) shown yet.
Requested field: log10(TGI). Item: O=C(NCc1ccc(Cn2c(=O)sn(-c3ccccc3)c2=O)cc1)OCc1ccc2c(Br)cc(Br)c(O)c2n1
0.44
